- TARGET OR SYSTEM: recombinant human baculovirus-expressed cMET (Homo sapiens (Human), UniProt P08581)
- TEST SUMMARY: c-MET kinase assay (HTRF KinEASE)
- Format: biochemical
- COND: average of two or more determinations; read-out: c-MET IC50
EXPERIMENTAL ENDPOINT: IC50

Illustrative cases are given below, each with its answer.
>>> result("CC(C)n1cc(C(=O)Nc2ccc(Oc3cc(-c4cn(C)cn4)cn4nccc34)c(O)c2)c(=O)n(-c2ccc(F)cc2)c1=O [Example 122]")
"10 to 100 nM"
>>> result("CCn1cc(C(=O)Nc2ccc(Oc3cc(-c4cnn(C)c4)cn4nccc34)c(F)c2)c(=O)n(-c2ccc(F)cc2)c1=O [Example 33]")
"< 10 nM"
>>> result("CCn1cc(C(=O)Nc2ccc(Oc3cc(-c4cscn4)cn4nccc34)c(F)c2)c(=O)n(-c2ccc(F)cc2)c1=O [Example 101]")
"< 10 nM"
>>> result("CCn1cc(C(=O)Nc2ccc(Oc3cc(-c4cn(C)cn4)cn4nccc34)cc2)c(=O)n(-c2ccc(F)cc2)c1=O [Example 113]")
"< 10 nM"
>>> result("O=C(Nc1ccc(F)cc1)C1(C(=O)Nc2ccc(Oc3cc(N4CCOCC4)cn4nccc34)c(F)c2)CC1 [Example 63]")
"10 to 100 nM"

For the next question, use this molecule.
q: // lookup IC50 for CC(C)n1cc(C(=O)Nc2ccc(Oc3cc(N4CCC(F)(F)CC4)cn4nccc34)c(F)c2)c(=O)n(-c2ccc(F)cc2)c1=O [Example 69]
a: 10 to 100 nM
